test system: J774.A1; assay: Cytotoxicity against mouse J774.A1 cells by LDH release assay; format: functional, cell-based; conditions: Mus musculus, J774.A1
measure_name: IC50 (µM)
Numbers only; they are read as µM.

CC1=CCC[C@@H]2[C@@](C)(C[C@H](O)C3=CC(=O)OC3O)[C@H](C)CC[C@@]12C (stereo partly specified) ... 3.6
COC(=O)[C@H]1C[C@@H]2[C@@](C)(C[C@H](O)C3=CC(=O)OC3O)[C@H](C)CC[C@@]2(C)[C@@]1(C)O (stereo partly specified) ... 1.5
CC(=O)O[C@@H]1CC[C@@H]2[C@@](C)(C[C@H](O)C3=CC(=O)O[C@@H]3OC(C)=O)[C@H](C)CC[C@@]2(C)C(=O)C1 ... 5.3
C[C@@H]1CC[C@@]2(C)C(=O)C[C@H](O)CC[C@@H]2[C@@]1(C)C[C@H](O)C1=CC(=O)OC1O (mixture of isomers) ... 25.4
C[C@@H]1CC[C@]2(C)[C@H](C[C@H](C(=O)O)[C@]2(C)O)[C@@]1(C)C[C@H](O)C1=CC(=O)OC1O (stereo partly specified) ... 24.7

Give the reported IC50 for C[C@@H]1CC[C@]2(C)[C@H](CC(=O)[C@H]2C)[C@@]1(C)C[C@H](O)C1=CC(=O)OC1O (stereo partly specified) (system: J774.A1). 1.4
